- Tested on: Escherichia coli TOP10;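 also: peptides expressed intracellularly from a pBAD plasmid library in pooled LB shake-flask culture, induced with 0.3% L-arabinose, DNA abundance read by NGS, three biological replicates, DESeq2 with apeglm shrinkage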
- Assay: shrunken log2 fold change of peptide-encoding DNA abundance (4.5 h post-induction vs induction); higher = less antimicrobial activity (less host growth inhibition)
- Measurement Context: time post-induction: 4.5 h; library: site-saturation at positions 5, 18, 19, 20
1 means recorded shrunken log2 fold change is 0.04 or above; 0 means it is below 0.04.

Sample answers from the record:
INSERT INTO measurements (sequence_record, assay_target, answer_label) VALUES
  ('RRIRVRPPRLPRPRPRPCHGPRP', 'Escherichia coli TOP10', 0),
  ('RRIRGRPPRLPRPRPRPRWKPRP', 'Escherichia coli TOP10', 1),
  ('RRIRIRPPRLPRPRPRPDCCPRP', 'Escherichia coli TOP10', 0),
  ('RRIRNRPPRLPRPRPRPRSTPRP', 'Escherichia coli TOP10', 0),
  ('RRIRDRPPRLPRPRPRPLFEPRP', 'Escherichia coli TOP10', 1),
  ('RRIRIRPPRLPRPRPRPGNHPRP', 'Escherichia coli TOP10', 0),
  ('RRIRPRPPRLPRPRPRPHSNPRP', 'Escherichia coli TOP10', 0),
  ('RRIRLRPPRLPRPRPRPCILPRP', 'Escherichia coli TOP10', 0),
  ('RRIRRRPPRLPRPRPRPCYWPRP', 'Escherichia coli TOP10', 0),
  ('RRIRFRPPRLPRPRPRPYHNPRP', 'Escherichia coli TOP10', 0);

-- ask // inclusive: shrunken log2 fold change at least 0.04? input: "RRIRMRPPRLPRPRPRPNFRPRP"
-- reply 1

-- ask // inclusive: shrunken log2 fold change at least 0.04? input: "RRIRCRPPRLPRPRPRPSECPRP"
-- reply 0

-- ask // inclusive: shrunken log2 fold change at least 0.04? input: "RRIRMRPPRLPRPRPRPWMRPRP"
-- reply 1

-- ask // inclusive: shrunken log2 fold change at least 0.04? input: "RRIRLRPPRLPRPRPRPIQIPRP"
-- reply 0

-- ask // inclusive: shrunken log2 fold change at least 0.04? input: "RRIRYRPPRLPRPRPRPDKEPRP"
-- reply 0

-- ask // inclusive: shrunken log2 fold change at least 0.04? input: "RRIRPRPPRLPRPRPRPFKSPRP"
-- reply 0

-- ask // inclusive: shrunken log2 fold change at least 0.04? input: "RRIRSRPPRLPRPRPRPIQVPRP"
-- reply 1

-- ask // inclusive: shrunken log2 fold change at least 0.04? input: "RRIRWRPPRLPRPRPRPFMGPRP"
-- reply 0

-- ask // inclusive: shrunken log2 fold change at least 0.04? input: "RRIRYRPPRLPRPRPRPRNIPRP"
-- reply 0

-- ask // inclusive: shrunken log2 fold change at least 0.04? input: "RRIRHRPPRLPRPRPRPCPPPRP"
-- reply 0

-- ask // inclusive: shrunken log2 fold change at least 0.04? input: "RRIRSRPPRLPRPRPRPYAGPRP"
-- reply 1

-- ask // inclusive: shrunken log2 fold change at least 0.04? input: "RRIRLRPPRLPRPRPRPACWPRP"
-- reply 1

-- ask // inclusive: shrunken log2 fold change at least 0.04? input: "RRIRRRPPRLPRPRPRPLMTPRP"
-- reply 1

-- ask // inclusive: shrunken log2 fold change at least 0.04? input: "RRIRKRPPRLPRPRPRPQIIPRP"
-- reply 1

-- ask // inclusive: shrunken log2 fold change at least 0.04? input: "RRIRDRPPRLPRPRPRPHCPPRP"
-- reply 0

-- ask // inclusive: shrunken log2 fold change at least 0.04? input: "RRIRPRPPRLPRPRPRPSCLPRP"
-- reply 0

-- ask // inclusive: shrunken log2 fold change at least 0.04? input: "RRIRKRPPRLPRPRPRPPQDPRP"
-- reply 1

-- ask // inclusive: shrunken log2 fold change at least 0.04? input: "RRIRCRPPRLPRPRPRPNMEPRP"
-- reply 0

-- ask // inclusive: shrunken log2 fold change at least 0.04? input: "RRIRPRPPRLPRPRPRPGVWPRP"
-- reply 1

-- ask // inclusive: shrunken log2 fold change at least 0.04? input: "RRIRCRPPRLPRPRPRPVEQPRP"
-- reply 0

-- ask // inclusive: shrunken log2 fold change at least 0.04? input: "RRIRNRPPRLPRPRPRPPMAPRP"
-- reply 1

-- ask // inclusive: shrunken log2 fold change at least 0.04? input: "RRIRSRPPRLPRPRPRPKPYPRP"
-- reply 0

These data points were gathered from the supplement of paper PMC9112550.
